# Test system: fibrinogen
# EXPERIMENT_NOTES: Fibrinogen assay (Example 45)
# Assay type: in vivo, cynomolgus monkeys
# EXPERIMENTAL_SETUP: plasma; day 36; escalating dose regimen
Rule: 1 for fibrinogen levels not less than 200 mg/dL, 0 for anything less.

SUBSTANCE	ASSIGNED_CATEGORY
ISIS 417002: MOE gapmer, nucleobases 1275 to 1318 of SEQ ID NO: 1 (Table 8) (antisense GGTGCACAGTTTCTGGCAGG; MOE gapmer, wing and gap sizes not given here)	0
ISIS 416850: MOE gapmer, nucleobases 1275 to 1318 of SEQ ID NO: 1 (Table 8) (antisense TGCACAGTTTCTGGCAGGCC; MOE gapmer, wing and gap sizes not given here)	1
ISIS 416858: MOE gapmer, nucleobases 1275 to 1318 of SEQ ID NO: 1 (Table 8) (antisense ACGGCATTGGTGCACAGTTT; MOE gapmer, wing and gap sizes not given here)	1

Then this substance:
Prompt line: # check: fibrinogen levels of ISIS 416838: MOE gapmer, nucleobases 1018 to 1042 of SEQ ID NO: 1 (Table 6) (antisense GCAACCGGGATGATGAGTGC; MOE gapmer, wing and gap sizes not given here) is greater than or equal to 200 mg/dL
Response line: 0
